Origin of values: patent US20190315854A1

- SYSTEM_NAME: T1, sIL-6R (soluble IL-6 receptor; SBH Sciences) (human, UniProt P08887 20-365)
- T1 construct: also called human IL-6R
- T1 sequence: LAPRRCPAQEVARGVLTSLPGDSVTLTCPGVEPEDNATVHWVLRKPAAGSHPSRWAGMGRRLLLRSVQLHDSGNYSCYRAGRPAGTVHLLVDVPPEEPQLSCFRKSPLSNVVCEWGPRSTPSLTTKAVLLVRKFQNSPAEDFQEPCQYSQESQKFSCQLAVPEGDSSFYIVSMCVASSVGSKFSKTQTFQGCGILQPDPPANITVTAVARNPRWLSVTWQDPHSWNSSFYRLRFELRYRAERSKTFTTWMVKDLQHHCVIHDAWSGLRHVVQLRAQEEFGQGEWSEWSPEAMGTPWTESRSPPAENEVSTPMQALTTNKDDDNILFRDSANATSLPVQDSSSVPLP
- ASSAY_TEXT: SPR (BIAcore 3000), antibody on chip, sIL-6R analyte, 25 C
This listing pairs binders with measured Relative Affinity.

Dear colleague, please send me the reported Relative Affinity for 16# (antibody, human IgG1, kappa, V domains shown, also called Sample # 16) VH: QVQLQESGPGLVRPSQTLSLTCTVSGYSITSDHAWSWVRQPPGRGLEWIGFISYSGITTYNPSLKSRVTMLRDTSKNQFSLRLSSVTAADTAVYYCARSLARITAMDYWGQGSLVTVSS VL: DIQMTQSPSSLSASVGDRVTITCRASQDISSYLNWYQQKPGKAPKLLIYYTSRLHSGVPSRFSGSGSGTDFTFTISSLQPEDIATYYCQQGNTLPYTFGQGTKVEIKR when you can. 9.8 fold vs 25 (Tocilizumab)

Dear colleague, please send me the reported Relative Affinity for 14# (antibody, human IgG1, kappa, V domains shown, also called Sample # 14) VH: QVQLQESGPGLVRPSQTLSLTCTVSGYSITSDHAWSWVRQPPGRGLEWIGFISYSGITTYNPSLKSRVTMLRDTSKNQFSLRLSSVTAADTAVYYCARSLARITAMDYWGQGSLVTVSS VL: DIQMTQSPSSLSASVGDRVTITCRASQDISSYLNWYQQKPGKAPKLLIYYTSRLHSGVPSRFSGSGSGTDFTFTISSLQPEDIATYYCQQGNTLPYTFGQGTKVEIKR when you can. 7.4 fold vs 25 (Tocilizumab)

Dear colleague, please send me the reported Relative Affinity for 27# (antibody, human IgG1, kappa, V domains shown, also called Sample # 27) VH: QVQLQESGPGLVRPSQTLSLTCTVSGYSITSDHAWSWVRQPPGRGLEWIGFISYSGMTTYNPSLKSRVTMLRDTSKNQFSLRLSSVTAADTAVYYCARSLARATAMDYWGQGSLVTVSS VL: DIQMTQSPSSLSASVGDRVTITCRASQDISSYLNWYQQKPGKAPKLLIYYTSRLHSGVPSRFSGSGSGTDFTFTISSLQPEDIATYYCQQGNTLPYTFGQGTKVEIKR when you can. 13.1 fold vs 25 (Tocilizumab)

Dear colleague, please send me the reported Relative Affinity for 8# (antibody, human IgG1, kappa, V domains shown, also called Sample # 8) VH: QVQLQESGPGLVRPSQTLSLTCTVSGYSITSDHAWSWVRQPPGRGLEWIGFISYSGITTYNPSLKSRVTMLRDTSKNQFSLRLSSVTAADTAVYYCARSLARTTAMDFWGQGSLVTVSS VL: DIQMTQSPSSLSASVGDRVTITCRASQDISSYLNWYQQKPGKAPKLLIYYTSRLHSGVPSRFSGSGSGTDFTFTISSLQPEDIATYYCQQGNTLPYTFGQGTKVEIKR when you can. 1.5 fold vs 25 (Tocilizumab)

Dear colleague, please send me the reported Relative Affinity for 11# (antibody, human IgG1, kappa, V domains shown, also called Sample # 11) VH: QVQLQESGPGLVRPSQTLSLTCTVSGYSITSDHAWSWVRQPPGRGLEWIGFISYSGITTYNPSLKSRVTMLRDTSKNQFSLRLSSVTAADTAVYYCARSLARATAMDYWGQGSLVTVSS VL: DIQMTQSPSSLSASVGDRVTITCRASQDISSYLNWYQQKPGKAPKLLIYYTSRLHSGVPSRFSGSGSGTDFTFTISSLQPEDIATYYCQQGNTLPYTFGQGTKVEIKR when you can. 15.5 fold vs 25 (Tocilizumab)

Dear colleague, please send me the reported Relative Affinity for 28# (antibody, human IgG1, kappa, V domains shown, also called Sample # 28) VH: QVQLQESGPGLVRPSQTLSLTCTVSGYSITSDHAWSWVRQPPGRGLEWIGFISYSGMTTYNPSLKSRVTMLRDTSKNQFSLRLSSVTAADTAVYYCARSLARTTAMDYWGQGSLVTVSS VL: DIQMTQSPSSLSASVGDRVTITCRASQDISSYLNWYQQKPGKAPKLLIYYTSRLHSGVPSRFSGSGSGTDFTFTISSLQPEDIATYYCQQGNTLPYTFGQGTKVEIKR when you can. 5 fold vs 25 (Tocilizumab)
